- test target: H1 receptor (Homo sapiens, UniProt P35367)
- Construct: expressed in transfected cells; host or cells: HEK-293
- Sequence (P35367 whole entry): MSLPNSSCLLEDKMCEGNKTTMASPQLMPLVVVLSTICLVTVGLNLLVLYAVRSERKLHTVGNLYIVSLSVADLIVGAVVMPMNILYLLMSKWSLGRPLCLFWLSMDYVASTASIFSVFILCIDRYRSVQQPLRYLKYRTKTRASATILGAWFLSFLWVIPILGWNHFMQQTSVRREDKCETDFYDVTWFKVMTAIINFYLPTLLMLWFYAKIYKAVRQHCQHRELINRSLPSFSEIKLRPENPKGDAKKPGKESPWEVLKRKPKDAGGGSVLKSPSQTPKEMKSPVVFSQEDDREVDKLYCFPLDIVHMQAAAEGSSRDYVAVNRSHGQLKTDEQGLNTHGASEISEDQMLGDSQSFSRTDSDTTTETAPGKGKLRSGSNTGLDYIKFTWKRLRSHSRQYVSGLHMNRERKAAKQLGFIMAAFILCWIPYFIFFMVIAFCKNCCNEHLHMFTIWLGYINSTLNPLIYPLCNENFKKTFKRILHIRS
- assay summary: H1 receptor binding test
- experimental parameters: 1 nM [3H]pyrilamine, HEK-293 cell membrane homogenate; read-out: Affinity of the compound for H1 receptor (Ki value, nM) H1
measured property: Ki

Here's what some known entries look like.
structure notation | test target | reported result
COc1ccc(-c2cc(N3CCOCC3)nc(N3CCN(CC[C@H]4CC[C@H](NC(=O)N5CCOCC5)CC4)CC3)c2)cc1 | H1 receptor (Homo sapiens, UniProt P35367) | > 1000 nM
CN(C)C(=O)N[C@H]1CC[C@H](CCN2CCN(c3cc(-c4ccc[nH]4)cc(N4CCOCC4)n3)CC2)CC1 | H1 receptor (Homo sapiens, UniProt P35367) | > 1000 nM
O=C(N[C@H]1CC[C@H](CCN2CCN(c3cc(-c4ccc(F)cc4)cc(N4CCOCC4)n3)CC2)CC1)c1cccnc1 | H1 receptor (Homo sapiens, UniProt P35367) | > 1000 nM
CN(C)C(=O)N[C@H]1CC[C@H](CCN2CCN(c3cc(-c4cccs4)cc(N4CCOCC4)n3)CC2)CC1 | H1 receptor (Homo sapiens, UniProt P35367) | 590 nM

Now for the compound whose Ki we want.
Name the reported Ki value associated with the compound `CCCN(C)C(=O)N[C@H]1CC[C@H](CCN2CCN(c3cc(-c4ccc(F)cc4)cc(N4CCOCC4)n3)CC2)CC1`
> 1000 nM
